Test: Binding affinity to quail lipocalin Q83 assessed as second molecule binding at 2:1 compound:protein ratio by […]
Parameters: species or system Galliformes
Observation Type: Kd (mM)
Numeric only. Scale: mM

Recorded Kd of COc1cc(C(=O)O)ccc1O [VANILLIC ACID] , please.
70

---

Test: Binding affinity to quail lipocalin Q83 assessed as first molecule binding at 2:1 compound:protein ratio by […]
Parameters: species or system Galliformes
Observation Type: Kd (µM)
# number only, unit µM dropped from output

Looking for the measured Kd of COc1cc(C(=O)O)ccc1O [VANILLIC ACID] , can you help?
500
